Source: patent US4604380A

test system: Streptococcus pyogenes C203; assay: MIC, standard agar-dilution assay (Table III); format: cell-based; conditions: agar dilution; Streptococcus pyogenes C203; read-out: MIC
Endpoint name: MIC

[
  {
    "Compound": "CCC1OC(=O)CC(O)C(C)C(OC2OC(C)C(O)C(N(C)C)C2O)C(CC=O)CC(C)C(=O)C=CC(C)=CC1CN1CCC2(CCCCC2)CC1 (centres unmarked)",
    "Measured value": "0.25 µg/mL"
  },
  {
    "Compound": "CCC1OC(=O)CC(O)C(C)C(OC2OC(C)C(O)C(N(C)C)C2O)C(CC=O)CC(C)C(=O)C=CC(C)=CC1CN(Cc1ccccc1)C1CC2CCC1C2 (centres unmarked)",
    "Measured value": "0.06 µg/mL"
  },
  {
    "Compound": "CCC1OC(=O)CC(O)C(C)C(OC2OC(C)C(O)C(N(C)C)C2O)C(CC=O)CC(C)C(=O)C=CC(C)=CC1CN1CCc2ccccc2C1 (centres unmarked)",
    "Measured value": "0.06 µg/mL"
  },
  {
    "Compound": "CCC1OC(=O)CC(O)C(C)C(OC2OC(C)C(O)C(N(C)C)C2O)C(CC=O)CC(C)C(=O)C=CC(C)=CC1CN1CCCC12CCCCC2 (centres unmarked)",
    "Measured value": "0.125 µg/mL"
  },
  {
    "Compound": "CCC1OC(=O)CC(O)C(C)C(OC2OC(C)C(O)C(N(C)C)C2O)C(CC=O)CC(C)C(=O)C=CC(C)=CC1CN1CCCC2CCCCC21 (centres unmarked) [Compound 20, 23-deoxy-23-(decahydroquinolin-1-yl)-OMT]",
    "Measured value": "0.125 µg/mL"
  },
  {
    "Compound": "CCC1OC(=O)CC(O)C(C)C(OC2OC(C)C(O)C(N(C)C)C2O)C(CC=O)CC(C)C(=O)C=CC(C)=CC1CNC12CC3CC(CC(C3)C1)C2 (centres unmarked)",
    "Measured value": "0.125 µg/mL"
  },
  {
    "Compound": "CCC1OC(=O)CC(O)C(C)C(OC2OC(C)C(O)C(N(C)C)C2O)C(CC=O)CC(C)C(=O)C=CC(C)=CC1CN1CC2(C)CC1CC(C)(C)C2 (centres unmarked)",
    "Measured value": "0.25 µg/mL"
  },
  {
    "Compound": "CCC1OC(=O)CC(O)C(C)C(OC2OC(C)C(O)C(N(C)C)C2O)C(CC=O)CC(C)C(=O)C=CC(C)=CC1CN1C2CCCCC2C2CCCCC21 (centres unmarked)",
    "Measured value": "0.25 µg/mL"
  }
]
